Below, each entry is listed alongside its reported viability, T/C.
System: 958667-338-R-J2-PDC tumor spheroids viability
Assay: Anticancer human tumor 958667-338-R-J2-PDC patient-derived colon adenocarcinoma cell line growth inhibition [PI3K]
Conditions: second compound 3.16 µM; first compound 0.316 µM; hits give low values; spheroids with HUVEC and MSC

compound	viability, T/C / %
Cn1nccc1Nc1nccc(-c2ccn(C(CO)c3ccc(Cl)c(F)c3)c(=O)c2)n1 (stereo not drawn) + Cc1nc(NC(=O)N2CCCC2C(N)=O)sc1-c1ccnc(C(C)(C)C(F)(F)F)c1	74.6
CC1(C)CCC(CN2CCN(c3ccc(C(=O)NS(=O)(=O)c4ccc(NCC5CCOCC5)c([N+](=O)[O-])c4)c(Oc4cnc5[nH]ccc5c4)c3)CC2)=C(c2ccc(Cl)cc2)C1 + CC(Nc1ncnc2nc[nH]c12)c1cc2cccc(Cl)c2c(=O)n1-c1ccccc1	94.4
C=CC(=O)N1CCN(c2nc(=O)n(-c3c(C)ccnc3C(C)C)c3nc(-c4c(O)cccc4F)c(F)cc23)C(C)C1 (stereo not drawn) + CC(Nc1ncnc2nc[nH]c12)c1cc2cccc(Cl)c2c(=O)n1-c1ccccc1	99.9

###

Test system: 958667-338-R-J2-PDC tumor spheroids viability
Test: Anticancer human tumor 958667-338-R-J2-PDC cell line growth inhibition [PI3K];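 also: spheroids exposed to compounds for seven days before readout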
Settings: second compound 1 µM; first compound 0.0316 µM; hits give low values; spheroids with HUVEC and MSC
Threshold 90%: viability, T/C strictly smaller gives yes (1), otherwise no (0).

compound	assayed target	class assignment
CC(C)NCC(C(=O)N1CCN(c2ncnc3c2C(C)CC3O)CC1)c1ccc(Cl)cc1 (configuration not stated) + CC(Nc1ncnc2nc[nH]c12)c1cc2cccc(Cl)c2c(=O)n1-c1ccccc1	958667-338-R-J2-PDC tumor spheroids viability	yes (1)
C=CC(=O)N1CCN(c2nc(=O)n(-c3c(C)ccnc3C(C)C)c3nc(-c4c(O)cccc4F)c(F)cc23)C(C)C1 (configuration not stated) + COc1c(OCCCN2CCOCC2)ccc2c3n(c(=NC(=O)c4cnc(N)nc4)nc12)CCN3	958667-338-R-J2-PDC tumor spheroids viability	yes (1)
CC1(C)CCC(CN2CCN(c3ccc(C(=O)NS(=O)(=O)c4ccc(NCC5CCOCC5)c([N+](=O)[O-])c4)c(Oc4cnc5[nH]ccc5c4)c3)CC2)=C(c2ccc(Cl)cc2)C1 + COc1c(OCCCN2CCOCC2)ccc2c3n(c(=NC(=O)c4cnc(N)nc4)nc12)CCN3	958667-338-R-J2-PDC tumor spheroids viability	yes (1)
C[C@@H](NC(=O)c1ncnc(N)c1Cl)c1ncc(C(=O)Nc2cc(C(F)(F)F)c(Cl)cn2)s1 + COc1c(OCCCN2CCOCC2)ccc2c3n(c(=NC(=O)c4cnc(N)nc4)nc12)CCN3	958667-338-R-J2-PDC tumor spheroids viability	yes (1)
CNC(=O)c1ccc(N2C(=S)N(c3ccc(C#N)c(C(F)(F)F)c3)C(=O)C2(C)C)cc1F + CC(Nc1ncnc2nc[nH]c12)c1cc2cccc(Cl)c2c(=O)n1-c1ccccc1	958667-338-R-J2-PDC tumor spheroids viability	no (0)
CCCS(=O)(=O)Nc1ccc(F)c(C(=O)c2c[nH]c3ncc(-c4ccc(Cl)cc4)cc23)c1F + CC(Nc1ncnc2nc[nH]c12)c1cc2cccc(Cl)c2c(=O)n1-c1ccccc1	958667-338-R-J2-PDC tumor spheroids viability	no (0)
Cn1nccc1Nc1nccc(-c2ccn(C(CO)c3ccc(Cl)c(F)c3)c(=O)c2)n1 (configuration not stated) + Cc1nc(NC(=O)N2CCCC2C(N)=O)sc1-c1ccnc(C(C)(C)C(F)(F)F)c1	958667-338-R-J2-PDC tumor spheroids viability	no (0)
CC(=O)c1c(C)c2cnc(Nc3ccc(N4CCNCC4)cn3)nc2n(C2CCCC2)c1=O + COc1c(OCCCN2CCOCC2)ccc2c3n(c(=NC(=O)c4cnc(N)nc4)nc12)CCN3	958667-338-R-J2-PDC tumor spheroids viability	yes (1)
CNC(=O)c1ccc(N2C(=S)N(c3ccc(C#N)c(C(F)(F)F)c3)C(=O)C2(C)C)cc1F + COc1c(OCCCN2CCOCC2)ccc2c3n(c(=NC(=O)c4cnc(N)nc4)nc12)CCN3	958667-338-R-J2-PDC tumor spheroids viability	yes (1)
C[C@@H](NC(=O)c1ncnc(N)c1Cl)c1ncc(C(=O)Nc2cc(C(F)(F)F)c(Cl)cn2)s1 + CC(Nc1ncnc2nc[nH]c12)c1cc2cccc(Cl)c2c(=O)n1-c1ccccc1	958667-338-R-J2-PDC tumor spheroids viability	yes (1)
CNC(=O)c1ccc(N2C(=S)N(c3ccc(C#N)c(C(F)(F)F)c3)C(=O)C2(C)C)cc1F + CC(Nc1ccc2c(c1)OCCn1cc(N3C(=O)OCC3C(F)F)nc1-2)C(N)=O	958667-338-R-J2-PDC tumor spheroids viability	yes (1)
